FYI, the data here is from patent US8791267B2.

Would you kindly list IC50 for each of these compounds?
- test target: PDE4 (Homo sapiens, UniProt Q08499)
- Sequence (Q08499 whole entry): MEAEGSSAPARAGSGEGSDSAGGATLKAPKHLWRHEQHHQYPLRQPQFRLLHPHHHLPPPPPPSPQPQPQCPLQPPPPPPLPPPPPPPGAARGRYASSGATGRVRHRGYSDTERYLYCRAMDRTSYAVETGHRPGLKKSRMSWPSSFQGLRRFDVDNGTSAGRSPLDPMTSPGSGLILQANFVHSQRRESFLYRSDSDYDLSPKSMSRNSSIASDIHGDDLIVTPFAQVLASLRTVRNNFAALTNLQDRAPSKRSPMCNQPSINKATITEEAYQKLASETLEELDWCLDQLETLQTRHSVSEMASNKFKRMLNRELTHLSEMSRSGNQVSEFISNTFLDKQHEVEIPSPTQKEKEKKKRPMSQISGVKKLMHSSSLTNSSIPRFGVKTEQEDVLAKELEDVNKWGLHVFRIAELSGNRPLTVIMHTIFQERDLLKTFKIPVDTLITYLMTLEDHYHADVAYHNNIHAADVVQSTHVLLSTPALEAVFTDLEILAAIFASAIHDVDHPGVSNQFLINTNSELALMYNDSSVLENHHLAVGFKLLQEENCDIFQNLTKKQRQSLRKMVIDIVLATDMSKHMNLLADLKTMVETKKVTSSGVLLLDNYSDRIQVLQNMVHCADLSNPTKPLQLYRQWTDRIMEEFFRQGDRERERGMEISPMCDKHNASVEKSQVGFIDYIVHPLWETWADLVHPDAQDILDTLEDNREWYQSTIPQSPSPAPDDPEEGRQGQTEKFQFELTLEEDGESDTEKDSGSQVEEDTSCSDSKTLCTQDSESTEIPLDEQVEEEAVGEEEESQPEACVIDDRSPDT
- assay explanation: In-vitro assay for PDE4 enzymes, real-time enzyme-coupled spectrophotometric assay (Table 9)
- Assay type: biochemical
- experimental setup: human PDE4D; activity class, Table 9; read-out: hPDE4D
Structures can show the parent of a compound that is named as a salt.

I would be grateful if you could share the reported IC50 for COc1ccc(Cn2ccccc2=O)cc1-c1cccc([N+](=O)[O-])c1 [P-104] .
< 5 µM

I would be grateful if you could share the reported IC50 for COc1ccc(COc2ccnc(N3CCCC3)c2)c(F)c1-c1cccc(Cl)c1 [P-608] .
< 5 µM

I would be grateful if you could share the reported IC50 for COc1ccc(Cc2c(C)nn(CC(F)(F)F)c2C)cc1-c1cccc([N+](=O)[O-])c1 [P-090] .
< 5 µM

I would be grateful if you could share the reported IC50 for CN(C)CC(=O)Nc1ccc(Cc2ccc(OC(F)F)c(-c3cccc(Cl)c3)c2)cn1 [P-618, hydrochloride] .
< 5 µM

I would be grateful if you could share the reported IC50 for COc1ccc(Cc2ccc(F)cc2)c(F)c1-c1cccc([N+](=O)[O-])c1 [P-050] .
< 5 µM

I would be grateful if you could share the reported IC50 for COc1ccc(CN2C(=O)CCC2=O)cc1-c1cccc([N+](=O)[O-])c1 [P-036] .
< 5 µM

I would be grateful if you could share the reported IC50 for NC(=O)Nc1ccc(Cc2ccc(OC3CNC3)c(-c3cccc(Cl)c3)c2)cc1 [P-554] .
5 to 20 µM

I would be grateful if you could share the reported IC50 for COc1ccc(C(C)(O)c2ccc(NC(C)=O)cc2)c(F)c1-c1cccc(Cl)c1 (racemic) [P-530] .
< 5 µM

I would be grateful if you could share the reported IC50 for NC(=O)Nc1ccc(Cc2ccc(OC(F)F)c(-c3cccc(Cl)c3)c2)cc1 [P-420] .
< 5 µM

I would be grateful if you could share the reported IC50 for CC(=O)Nc1ccc(NCc2ccc(O)c(-c3cccc(Cl)c3)c2F)cc1 [P-203] .
< 5 µM

I would be grateful if you could share the reported IC50 for CCOC(=O)N1CCN(c2ccc(Cc3ccc(OC)c(-c4cccc(Cl)c4)c3F)cn2)CC1 [P-431] .
< 5 µM

I would be grateful if you could share the reported IC50 for COc1ccc(Cn2ccc(C#N)cc2=O)cc1-c1cccc([N+](=O)[O-])c1 [P-196] .
< 5 µM

I would be grateful if you could share the reported IC50 for COc1ccc(Oc2ccc(N)nc2)c(F)c1-c1cccc(C#N)c1 [P-439] .
< 5 µM

I would be grateful if you could share the reported IC50 for COc1ccc(CN2CC[C@@H](O)C2)cc1-c1cccc([N+](=O)[O-])c1 [P-071] .
< 5 µM

I would be grateful if you could share the reported IC50 for COc1ccc(Cc2cccnc2Cl)c(O)c1-c1cccc(N)c1 [P-182] .
5 to 20 µM

I would be grateful if you could share the reported IC50 for COc1ccc(Cc2ccc(CNS(C)(=O)=O)c(F)c2)c(F)c1-c1cccc(Cl)c1 [P-286] .
< 5 µM

I would be grateful if you could share the reported IC50 for COc1ccc(Cc2ccc[nH]c2=O)c(O)c1-c1cccc(N)c1 [P-185] .
5 to 20 µM

I would be grateful if you could share the reported IC50 for COc1ccc(Cc2ccc(-n3cccn3)cc2)c(O)c1-c1cccc([N+](=O)[O-])c1 [P-173] .
< 5 µM

###

Would you kindly list pIC50 for each of these compounds?
- test target: PDE4 (Homo sapiens)
- assay explanation: In-vitro assay for PDE4 enzymes, real-time enzyme-coupled spectrophotometric assay (Table 9)
- Type: biochemical
- experimental setup: human PDE4D; activity class, Table 9; read-out: hPDE4D
pIC50: −log10 of the molar value. Structures can show the parent of a compound that is named as a salt.

I would be grateful if you could share the reported pIC50 for O=CNCc1ccccc1Cc1ccc(O)c(-c2cccc([N+](=O)[O-])c2)c1 [P-501] .
4.70 to 5.30

I would be grateful if you could share the reported pIC50 for NC(=O)Nc1ccc(Cc2ccc(O)c(-c3cccc(Cl)c3)c2)cc1 [P-421] .
> 5.30

I would be grateful if you could share the reported pIC50 for COc1ccc(CC2CCCS2)c(F)c1-c1cccc([N+](=O)[O-])c1 (centres unmarked) [P-127] .
> 5.30

I would be grateful if you could share the reported pIC50 for COc1ccc(Cc2cnc(N(C)C)nc2)c(F)c1-c1cccc(C(C)=O)c1 [P-325] .
> 5.30

I would be grateful if you could share the reported pIC50 for COc1ccc(Cn2cncn2)cc1-c1ccc2nonc2c1 [P-481] .
> 5.30

I would be grateful if you could share the reported pIC50 for COc1ccc(COc2ccc(Br)cn2)c(F)c1-c1cccc(Cl)c1 [P-574] .
> 5.30

I would be grateful if you could share the reported pIC50 for COc1ccc(Cc2ccc(-n3cncn3)nc2)c(F)c1-c1cccc(Cl)c1 [P-412] .
> 5.30

I would be grateful if you could share the reported pIC50 for COc1ccc(Cn2cnc(C(N)=O)c2)c(F)c1-c1cccc(Cl)c1 [P-534] .
> 5.30

I would be grateful if you could share the reported pIC50 for O=[N+]([O-])c1cccc(-c2nc(Cc3ccc(F)cc3)ccc2OC(F)F)c1 [P-057] .
> 5.30

I would be grateful if you could share the reported pIC50 for O=C1CCCN1Cc1ccc(O)c(-c2cccc([N+](=O)[O-])c2)c1 [P-503] .
4.70 to 5.30

I would be grateful if you could share the reported pIC50 for CNc1ccc(Cc2ccc(OC)c(-c3cccc(C(C)=O)c3)c2F)cc1 [P-331, hydrochloride] .
> 5.30

I would be grateful if you could share the reported pIC50 for COc1ccc(COc2ccc(N)cc2)c(F)c1-c1cccc(Br)c1 [P-199] .
> 5.30

I would be grateful if you could share the reported pIC50 for COc1ccc(C(=O)c2ccc(F)cc2)c(F)c1-c1cccc([N+](=O)[O-])c1 [P-049] .
> 5.30

I would be grateful if you could share the reported pIC50 for COc1ccc(COc2ccc(NC(C)=O)cc2)c(F)c1-c1cccc(Br)c1 [P-194] .
> 5.30

I would be grateful if you could share the reported pIC50 for COc1ccc(Cn2cc(NC(C)=O)ccc2=O)cc1-c1cccc([N+](=O)[O-])c1 [P-211] .
4.70 to 5.30

I would be grateful if you could share the reported pIC50 for NC(=O)Nc1ccc(Cc2ccc(OC(F)F)c(-c3cccc(Cl)c3)c2)cn1 [P-616] .
> 5.30

I would be grateful if you could share the reported pIC50 for COc1ccc(Oc2ccc(NS(C)(=O)=O)cc2)c(F)c1-c1cccc(Cl)c1 [P-254] .
4.70 to 5.30

I would be grateful if you could share the reported pIC50 for COc1ccc(Cc2ccc(F)cc2)cc1-c1cccc(Cl)n1 [P-391] .
> 5.30

I would be grateful if you could share the reported pIC50 for [2H]C([2H])(c1ccc(NC(N)=O)cc1)c1ccc(OC)c(-c2cccc(Cl)c2)c1F [P-532] .
> 5.30

I would be grateful if you could share the reported pIC50 for COc1ccc(Cc2cccc(C(N)=O)c2)cc1-c1cccc(Cl)c1 [P-282] .
> 5.30

I would be grateful if you could share the reported pIC50 for COc1ccc(Cc2ccc(CNC(=O)C(N)=O)nc2)c(F)c1-c1cccc(Cl)c1 [P-521] .
> 5.30

I would be grateful if you could share the reported pIC50 for COc1ccc(CN2CCCC2=O)cc1-c1cccc(-c2nnco2)c1 [P-186] .
4.40 to 4.70

I would be grateful if you could share the reported pIC50 for COc1cccc(-c2cc(Cn3cncn3)ccc2OC)c1 [P-086] .
> 5.30

I would be grateful if you could share the reported pIC50 for COc1ccc(Cc2ccc(F)cc2)cc1-n1cc(-c2ccncc2)cn1 [P-389] .
4.70 to 5.30

I would be grateful if you could share the reported pIC50 for COc1ccc(Cc2cccc(NC(C)=O)c2)cc1-c1cccc(Cl)c1 [P-477] .
> 5.30

I would be grateful if you could share the reported pIC50 for COc1ccc(Cc2ccc(CNC(N)=O)c(F)c2)c(F)c1-c1cccc(C(C)=O)c1 [P-330] .
> 5.30

I would be grateful if you could share the reported pIC50 for COc1ccc(CN2CCC[C@H]2CO)cc1-c1cccc([N+](=O)[O-])c1 [P-072] .
4.70 to 5.30

I would be grateful if you could share the reported pIC50 for COc1ccc(Cc2ccc(N)cn2)c(F)c1-c1cccc(Cl)c1 [P-478] .
> 5.30

I would be grateful if you could share the reported pIC50 for COc1ccc(Cc2ccc(O)cc2)cc1-c1cccc([N+](=O)[O-])c1 [P-142] .
> 5.30

I would be grateful if you could share the reported pIC50 for COc1ccc(Cc2ccc(N)cc2)c(F)c1-c1cccc([N+](=O)[O-])c1 [P-136] .
> 5.30

I would be grateful if you could share the reported pIC50 for COc1ccc(C(O)c2ccnn2C)cc1-c1ccc2c(c1)OCO2 (centres unmarked) [P-073] .
> 5.30

I would be grateful if you could share the reported pIC50 for COc1ccc(Cc2ccc(N)nc2)cc1-c1cccc([N+](=O)[O-])c1 [P-111] .
> 5.30

I would be grateful if you could share the reported pIC50 for CC(=O)Nc1ccc(Cc2ccc(O)c(-c3cccc(Br)c3)c2F)cc1 [P-620] .
> 5.30

I would be grateful if you could share the reported pIC50 for CCNC(=O)Nc1ncc(Cc2ccc(OC)c(-c3cccc(C(C)=O)c3)c2F)cn1 [P-315] .
> 5.30

I would be grateful if you could share the reported pIC50 for COc1ccc(Cc2ccc(N)c(O)c2)c(F)c1-c1cccc(Cl)c1 [P-256] .
> 5.30

I would be grateful if you could share the reported pIC50 for O=[N+]([O-])c1cccc(-c2cc(Cc3ccc(F)cc3)ccc2OC(F)F)c1 [P-067] .
> 5.30

I would be grateful if you could share the reported pIC50 for COc1ccc(COc2ccc(NC(C)=O)cc2)c(F)c1-c1cccc(Cl)c1 [P-594] .
> 5.30

I would be grateful if you could share the reported pIC50 for CCNC(=O)NCc1ccc(Cc2ccc(OC)c(-c3cccc(Cl)c3)c2F)cn1 [P-372] .
> 5.30
